All figures here come from the supplement of paper PMC9262897.

system: E. coli TESEC Mtb Asd; assay: growth (OD600 after 10 h); higher = more growth (less inhibition); settings: arabinose induction (level): Low; compound 0.1 mM; raw OD600 reference: median of DMSO wells 0.417, cell-free background 0.041
Where a name gives a salt, the structure may show the parent alone.
Class 1 (yes): growth at least 0.3. Class 0 (no): growth below 0.3.

>  <COMPOUND>
CC(=O)Oc1ccc(C(c2ccc(OC(C)=O)cc2)c2ccccn2)cc1

>  <EXPERIMENTAL TARGET>
E. coli TESEC Mtb Asd

>  <ASSIGNED CATEGORY>
0 (no)

$$$$
>  <COMPOUND>
C#C[C@]1(O)CC[C@H]2[C@@H]3CCC4=Cc5oncc5C[C@]4(C)[C@H]3CC[C@@]21C

>  <EXPERIMENTAL TARGET>
E. coli TESEC Mtb Asd

>  <ASSIGNED CATEGORY>
0 (no)

$$$$
>  <COMPOUND>
CC(C)NC(=N)NC(=N)Nc1ccc(Cl)cc1 [Proguanil hydrochloride]

>  <EXPERIMENTAL TARGET>
E. coli TESEC Mtb Asd

>  <ASSIGNED CATEGORY>
1 (yes)

$$$$
>  <COMPOUND>
C[N+]1(C)CCC(=C(c2ccccc2)c2ccccc2)CC1 [Diphemanil methylsulfate]

>  <EXPERIMENTAL TARGET>
E. coli TESEC Mtb Asd

>  <ASSIGNED CATEGORY>
1 (yes)

$$$$
>  <COMPOUND>
CCN(CC)C(=O)N1CCN(C)CC1 [Diethylcarbamazine citrate]

>  <EXPERIMENTAL TARGET>
E. coli TESEC Mtb Asd

>  <ASSIGNED CATEGORY>
1 (yes)

$$$$
>  <COMPOUND>
Oc1c(Cl)cc(Cl)c2cccnc12

>  <EXPERIMENTAL TARGET>
E. coli TESEC Mtb Asd

>  <ASSIGNED CATEGORY>
0 (no)

$$$$
>  <COMPOUND>
N[C@@H]1CCCCN(c2c(F)cc3c(=O)c(C(=O)O)cn(C4CC4)c3c2Cl)C1 [Besifloxacin hydrochloride]

>  <EXPERIMENTAL TARGET>
E. coli TESEC Mtb Asd

>  <ASSIGNED CATEGORY>
0 (no)

$$$$
>  <COMPOUND>
CC(C)(C)NCC(O)c1cc(O)cc(O)c1 (centres undefined) [Terbutaline hemisulfate]

>  <EXPERIMENTAL TARGET>
E. coli TESEC Mtb Asd

>  <ASSIGNED CATEGORY>
1 (yes)

$$$$

###

test system: E. coli TESEC Mtb DapB; experiment: growth (OD600 after 10 h); higher = more growth (less inhibition); settings: arabinose induction (level): High; compound 0.1 mM; raw OD600 reference: median of DMSO wells […], cell-free background 0.041
Counter-ions that a name gives are not always drawn.
Classify by measured growth: condition met if it is equal to or exceeds 0.2, condition not met if it is smaller.

>  <COMPOUND>
CC(C)c1c(C(=O)Nc2ccccc2)c(-c2ccccc2)c(-c2ccc(F)cc2)n1CC[C@@H](O)C[C@@H](O)CC(=O)O

>  <ASSIGNED CATEGORY>
condition not met

$$$$
>  <COMPOUND>
c1coc(CNc2ncnc3nc[nH]c23)c1

>  <ASSIGNED CATEGORY>
condition met

$$$$
>  <COMPOUND>
CC(=O)N[C@@H](CC(=O)N[C@@H](CCC(=O)O)C(=O)O)C(=O)O

>  <ASSIGNED CATEGORY>
condition met

$$$$
>  <COMPOUND>
O=C1Cc2cc(CCN3CCN(c4nsc5ccccc45)CC3)c(Cl)cc2N1 [Ziprasidone Hydrochloride]

>  <ASSIGNED CATEGORY>
condition met

$$$$
>  <COMPOUND>
CC[C@H]1OC(=O)[C@H](C)[C@@H](O[C@H]2C[C@@](C)(OC)[C@@H](O)[C@H](C)O2)[C@H](C)[C@@H](O[C@@H]2O[C@H](C)C[C@H](N(C)C)[C@H]2O)[C@](C)(OC)C[C@@H](C)C(=O)[C@H](C)[C@@H](O)[C@]1(C)O

>  <ASSIGNED CATEGORY>
condition not met

$$$$
>  <COMPOUND>
O=C1CCC(N2C(=O)c3ccccc3C2=O)C(=O)N1 (configuration not stated) [Thalidomide]

>  <ASSIGNED CATEGORY>
condition not met

$$$$
>  <COMPOUND>
CC(=O)SCC(Cc1ccccc1)C(=O)NCC(=O)OCc1ccccc1 (configuration not stated)

>  <ASSIGNED CATEGORY>
condition not met

$$$$

###

tested on: E. coli TESEC Mtb DapB; assay: growth (OD600 after 10 h); higher = more growth (less inhibition); settings: arabinose induction (level): High; compound 0.1 mM; raw OD600 reference: median of DMSO wells […], cell-free background 0.041
Counter-ions that a name gives are not always drawn.
Kindly return T if reported growth is no lower than 0.2; return F if it is lower.

>  <MOLECULE>
Clc1ccc(C(Cn2ccnc2)OCc2csc3c(Cl)cccc23)c(Cl)c1 (configuration not stated) [Sertaconazole nitrate]

>  <EXPERIMENTAL TARGET>
E. coli TESEC Mtb DapB

>  <ASSIGNED CATEGORY>
F

$$$$
>  <MOLECULE>
CC[C@H]1OC(=O)[C@H](C)[C@@H](O[C@H]2C[C@@](C)(OC)[C@@H](O)[C@H](C)O2)[C@H](C)[C@@H](O[C@@H]2O[C@H](C)C[C@H](N(C)C)[C@H]2O)[C@](C)(O)C[C@@H](C)C(=O)[C@H](C)[C@@H](O)[C@]1(C)O

>  <EXPERIMENTAL TARGET>
E. coli TESEC Mtb DapB

>  <ASSIGNED CATEGORY>
F

$$$$
>  <MOLECULE>
CC1CC(OC(=O)c2ccccc2O)CC(C)(C)C1 (configuration not stated) [Homosalate]

>  <EXPERIMENTAL TARGET>
E. coli TESEC Mtb DapB

>  <ASSIGNED CATEGORY>
F

$$$$
>  <MOLECULE>
OC(CCN1CCCC1)(c1ccccc1)C1CCCCC1 (configuration not stated) [Procyclidine hydrochloride]

>  <EXPERIMENTAL TARGET>
E. coli TESEC Mtb DapB

>  <ASSIGNED CATEGORY>
F

$$$$
>  <MOLECULE>
COc1ccc(C2CNC(=O)C2)cc1OC1CCCC1 (configuration not stated)

>  <EXPERIMENTAL TARGET>
E. coli TESEC Mtb DapB

>  <ASSIGNED CATEGORY>
T

$$$$
>  <MOLECULE>
CN1CCOC(c2ccccc2)c2ccccc2C1 (configuration not stated) [Nefopam hydrochloride]

>  <EXPERIMENTAL TARGET>
E. coli TESEC Mtb DapB

>  <ASSIGNED CATEGORY>
F

$$$$
>  <MOLECULE>
O=C(CCCN1CC=C(n2c(=O)[nH]c3ccccc32)CC1)c1ccc(F)cc1

>  <EXPERIMENTAL TARGET>
E. coli TESEC Mtb DapB

>  <ASSIGNED CATEGORY>
F

$$$$
>  <MOLECULE>
O=C(O)c1cn(C2CC2)c2cc(N3CCNCC3)c(F)cc2c1=O [Ciprofloxacin hydrochloride monohydrate]

>  <EXPERIMENTAL TARGET>
E. coli TESEC Mtb DapB

>  <ASSIGNED CATEGORY>
F

$$$$
>  <MOLECULE>
CC(C(=O)O)c1ccc(C(=O)c2cccs2)cc1 (configuration not stated)

>  <EXPERIMENTAL TARGET>
E. coli TESEC Mtb DapB

>  <ASSIGNED CATEGORY>
T

$$$$
>  <MOLECULE>
CC(C)(C)NC[C@H](O)c1ccc(O)c(CO)c1 [Levalbuterol hydrochloride]

>  <EXPERIMENTAL TARGET>
E. coli TESEC Mtb DapB

>  <ASSIGNED CATEGORY>
F

$$$$
>  <MOLECULE>
O=P(O)(O)C(O)(Cc1cccnc1)P(=O)(O)O [Risedronic acid monohydrate]

>  <EXPERIMENTAL TARGET>
E. coli TESEC Mtb DapB

>  <ASSIGNED CATEGORY>
F

$$$$
>  <MOLECULE>
CCCCc1oc2ccccc2c1C(=O)c1cc(I)c(OCCN(CC)CC)c(I)c1 [Amiodarone hydrochloride]

>  <EXPERIMENTAL TARGET>
E. coli TESEC Mtb DapB

>  <ASSIGNED CATEGORY>
F

$$$$
>  <MOLECULE>
CCCOc1ccc2[nH]c(NC(=O)OC)nc2c1

>  <EXPERIMENTAL TARGET>
E. coli TESEC Mtb DapB

>  <ASSIGNED CATEGORY>
F

$$$$
